src = patent US10233195B2

test system: TGF-b induced Endothelin-1 production; experiment: ET-1 assay: inhibitory effect on TGF-b induced endothelin-1 production; assay type: cell-based; details: Homo sapiens, Fibroblast; fibroblasts, stimulant (TGFb, serum, LPA etc), ET-1 in media by ELISA, 4-parameter fit
pEC50: −log10 of the molar value.
For each of the compounds below, state its pEC50.

The reported value for O=c1ccc(C(F)(F)F)cn1-c1cncnc1 [Compound 279] in terms of pEC50 is < 3.70

The reported value for Cc1ccc2c(c1)CC(=O)N2c1ccc(OC(F)(F)F)cc1 [Compound 82] in terms of pEC50 is < 3.70

The reported value for CC(=O)c1ccc(=O)n(-c2ccccc2Cl)c1 [Compound 19] in terms of pEC50 is 3.70 to 4.30

The reported value for O=c1cc(NCc2ccccc2)c(-c2ccc(F)cc2)cn1-c1ccc(OC(F)(F)F)cc1 [Compound 89] in terms of pEC50 is < 3.70

The reported value for Cc1cc(=O)n(-c2ccc(OC(F)(F)F)cc2)cc1-c1cccc2ncsc12 [Compound 263] in terms of pEC50 is > 4.30

The reported value for C[C@H]1CCC(=O)N(c2ccccc2)C1 [Compound 83] in terms of pEC50 is < 3.70

The reported value for CCCCC(=O)Nc1cc(=O)n(-c2ccc(OC(F)(F)F)cc2)cc1-c1ccc(F)cc1 [Compound 107] in terms of pEC50 is < 3.70

The reported value for CCn1cnc2c(-c3cnn(C(C)C)c3)cn(-c3ccc(OC(F)(F)F)cc3)c(=O)c21 [Compound 671] in terms of pEC50 is > 4.30

The reported value for CCc1cc(=O)n(-c2ccc(OC(F)(F)F)cc2)cc1-c1ccc(F)cc1 [Compound 199] in terms of pEC50 is 3.70 to 4.30

The reported value for CC(=O)Nc1cccc(-n2cc(Br)ccc2=O)c1 [Compound 271] in terms of pEC50 is < 3.70

The reported value for Cc1cc(=O)n(-c2ccc(OC(F)(F)F)cc2C)cc1-c1cnn(C)c1 [Compound 442] in terms of pEC50 is < 3.70

The reported value for Cn1ccc2c(-c3cn[nH]c3)cn(-c3ccc(Cl)cc3)c(=O)c21 [Compound 598] in terms of pEC50 is > 4.30

The reported value for O=c1cc(NCc2ccccn2)ccn1-c1ccc(OC(F)(F)F)cc1 [Compound 547] in terms of pEC50 is > 4.30

The reported value for O=c1c2[nH]ccc2c(-c2cn[nH]c2)cn1-c1ccc(OC(F)(F)F)cc1 [Compound 604] in terms of pEC50 is > 4.30

The reported value for O=c1ccc(Br)cn1-c1ccc(F)cc1 [Compound 265] in terms of pEC50 is < 3.70

The reported value for Cc1cn(-c2ccccc2)c(=O)c2c1CCCC2 [Compound 29] in terms of pEC50 is 3.70 to 4.30

The reported value for Cc1cc(=O)n(-c2ccc(OC(F)(F)F)cc2)cc1-c1cccc2c1OCCO2 [Compound 204] in terms of pEC50 is > 4.30

###

For each of the compounds below, state its pEC50.
tested on: TGF-b induced Endothelin-1 production; experiment: ET-1 assay: inhibitory effect on TGF-b induced endothelin-1 production; format: cell-based; details: Homo sapiens, Fibroblast; fibroblasts, stimulant (TGFb, serum, LPA etc), ET-1 in media by ELISA, 4-parameter fit
pEC50: −log10 of the molar value.

The reported value for Cc1ccc(F)c(-c2ccccc2)c1 in terms of pEC50 is < 3.70

The reported value for Cc1c(-c2ccc(=O)n(-c3ccc(OC(F)(F)F)cc3)c2)cnn1C in terms of pEC50 is > 4.30

The reported value for Cn1cc(-c2ccc(=O)n(-c3ccccc3)n2)cn1 in terms of pEC50 is < 3.70

The reported value for CCOc1ccc(-n2cc(-c3cn[nH]c3)ccc2=O)c(C)c1 in terms of pEC50 is > 4.30

The reported value for O=c1ncc(-c2ccc(F)cc2)cn1-c1ccc(OC(F)(F)F)cc1 in terms of pEC50 is < 3.70

The reported value for CCOc1ccc(-n2cc(-c3cnn(C)c3)c(OCCOC(C)C)cc2=O)c(C)c1 in terms of pEC50 is 3.70 to 4.30

The reported value for Cc1cc(=O)n(-c2ccc(OC(F)(F)F)cc2)cc1-c1ccc2c(c1)OC(C)(C)O2 in terms of pEC50 is < 3.70

The reported value for Cn1cc(-c2cn(-c3ccc(OC(F)(F)F)cc3)c(=O)c3scnc23)cn1 in terms of pEC50 is > 4.30

The reported value for Cn1cc(-c2cn(-c3ccc(Cl)cc3)c(=O)cc2Oc2ccccc2)cn1 in terms of pEC50 is > 4.30

The reported value for Cc1cc(=O)n(-c2ccc(Cl)cc2)cc1-c1cn[nH]c1 in terms of pEC50 is < 3.70

The reported value for O=c1c2nccnc2c(-c2cn[nH]c2)cn1-c1ccc(OC(F)(F)F)cc1 in terms of pEC50 is > 4.30

The reported value for Cn1cc(-c2cn(-c3ccc(OC(F)(F)F)cc3)c(=O)cc2OC2CCS(=O)(=O)CC2)cn1 in terms of pEC50 is 3.70 to 4.30

The reported value for O=c1ccc2c(n1-c1ccc(OC(F)(F)F)cc1)CCC2 in terms of pEC50 is 3.70 to 4.30

The reported value for Cc1cc(=O)n(-c2cccc(C(N)=O)c2)cc1-c1ccc(F)cc1 in terms of pEC50 is < 3.70

The reported value for CCOc1ccc(-n2cc(-c3cnn(C)c3)c(NCc3cccnc3)cc2=O)c(C)c1 in terms of pEC50 is > 4.30

The reported value for O=c1ccc(-c2cccc(Cl)c2)cn1-c1cccc(F)c1 in terms of pEC50 is > 4.30

The reported value for Cc1nc2c(=O)n(-c3ccc(OC(F)(F)F)cc3)cc(-c3cn[nH]c3)c2n1C in terms of pEC50 is > 4.30

The reported value for Cc1cc(=O)n(-c2ccc(OC(F)(F)F)cc2)cc1-c1nn[nH]n1 in terms of pEC50 is < 3.70

The reported value for Cc1cc(=O)n(-c2ccc(OC(F)(F)F)cc2)cc1-c1cccc2scnc12 in terms of pEC50 is < 3.70

The reported value for Cc1cc(=O)n(-c2ccc(OC(F)(F)F)cc2)cc1-c1cccc2c1OC(C)(C)O2 in terms of pEC50 is 3.70 to 4.30

The reported value for Cn1cc(-c2cn(-c3ccc(OC(F)(F)F)cc3)c(=O)cc2NCc2ccc(Cl)cc2Cl)cn1 in terms of pEC50 is > 4.30

The reported value for CCOCCn1ccc2c(-c3cn[nH]c3)cn(-c3ccc(OC(F)(F)F)cc3)c(=O)c21 in terms of pEC50 is > 4.30

The reported value for Cc1nc2ccn(-c3ccc(OC(F)(F)F)cc3)c(=O)c2s1 in terms of pEC50 is < 3.70

The reported value for Cc1cc(=O)n(-c2ccc(OC(F)(F)F)cc2)cc1-c1ccc2nccn2c1 in terms of pEC50 is 3.70 to 4.30

The reported value for CCn1ccc2c(-c3cnn(C)c3)c[nH]c(=O)c21 in terms of pEC50 is > 4.30

The reported value for COCCOc1cc(=O)n(-c2ccc(OC(F)(F)F)cc2)cc1-c1ccc(F)cc1 in terms of pEC50 is < 3.70

The reported value for Cc1ccc(=O)n(CCc2ccccc2)c1 in terms of pEC50 is 3.70 to 4.30

The reported value for Cn1cc(-c2cn(-c3ccc(OC(F)(F)F)cc3)c(=O)cc2NCc2cccnc2)cn1 in terms of pEC50 is 3.70 to 4.30

The reported value for CCn1nnc2c(=O)[nH]cc(-c3cnn(C)c3)c21 in terms of pEC50 is < 3.70

###

system: TGF-b induced Endothelin-1 production; assay: ET-1 assay: inhibitory effect on TGF-b induced endothelin-1 production; type: cell-based; conditions: Homo sapiens, Fibroblast; fibroblasts, stimulant (TGFb, serum, LPA etc), ET-1 in media by ELISA, 4-parameter fit
For each of the compounds below, state its EC50.

The reported value for CC(=O)Nc1cccc(-n2cc(C(C)=O)ccc2=O)c1 in terms of EC50 is > 200 µM

The reported value for Cn1cc(-c2cn(-c3ccc(OC(F)(F)F)cc3)c(=O)cc2NCCc2ccccc2)cn1 in terms of EC50 is > 200 µM

The reported value for COc1ccc(CNc2cc(=O)n(-c3ccc(OC(F)(F)F)cc3)cc2-c2cnn(C)c2)cc1 in terms of EC50 is < 50 µM

The reported value for CCn1ccc2c(=O)n(-c3ccc(OC(F)(F)F)cc3)cc(-c3ccc(F)cc3)c21 in terms of EC50 is < 50 µM

The reported value for O=c1ccc(-c2ccc(F)cc2)cn1-c1ccccc1F in terms of EC50 is 50 to 200 µM

The reported value for N#Cc1cc(=O)n(-c2ccc(OC(F)(F)F)cc2)cc1-c1ccc(F)cc1 in terms of EC50 is > 200 µM

The reported value for Cc1cc(=O)n(-c2ccc(OC(F)(F)F)cc2C)cc1-c1ccc(F)cc1 in terms of EC50 is < 50 µM

The reported value for CCOc1ccc(-n2cc(-c3cnn(C)c3)c(OCCOCCOC)cc2=O)c(C)c1 in terms of EC50 is 50 to 200 µM

The reported value for O=C(NCc1ccccc1)Nc1cc(=O)n(-c2ccc(OC(F)(F)F)cc2)cc1-c1ccc(F)cc1 in terms of EC50 is > 200 µM

The reported value for Cn1cc(-c2cn(-c3ccc(OC(F)(F)F)cc3)c(=O)c3nccnc23)cn1 in terms of EC50 is < 50 µM

The reported value for Cc1cc(=O)n(-c2ccc(Cl)cc2)cc1-c1ccc2ocnc2c1 in terms of EC50 is > 200 µM

The reported value for O=c1ccc(Br)cn1-c1cccc(C(F)(F)F)c1 in terms of EC50 is > 200 µM
